Tested on: CAKI-1
EXPERIMENTAL_DETAILS: NCI tumour cell line growth inhibition, 48 h
The source made the active and inactive calls. Cut-off read from the data, not from the text of the source: active = GI50 up to about 1.1 µM and inactive = higher. Non-standard residues stand in square brackets, D forms with d. Residues, ends and D or L forms follow the SMILES beside them. *: point of attachment. Bn2Val = CC(C)[C@@H](C(=O)*)N(Cc1ccccc1)Cc1ccccc1; NH(4-Cl-benzyl) = Clc1ccc(CN*)cc1; NMeV = CN[C@H](C(=O)O)C(C)C; dNMeA = CN[C@H](C)C(=O)O
Outcome codes: label 1 for active, label 0 for inactive

* CN(C)CCNC(=O)Cn1ccc(=O)c2cc([N+](=O)[O-])ccc21 | label 0
* CC(=O)C(CN(Cc1ccccc1)Cc1ccccc1)C(c1ccccc1)c1c(O)c2ccccc2oc1=O (stereo not given) | label 0
* COc1ccc2ccccc2c1C1=NC(C)(C)CO1 | label 0
* O=S1(=O)c2ccccc2N2CCCc3cc(Cl)cc1c32 | label 0
* COc1cccc2c1OCC1Cc3ccccc3OC21 (stereo not given) | label 0
* CN(C)CCCNC(=O)c1cc(NS(=O)(=O)c2ccc3c(c2)C(=O)c2ccccc2C3=O)cn1C | label 0
* CCOC(=O)Nc1cc2c(c(N)n1)N=C(c1ccc(OC)cc1)CN2 | label 1
* Clc1ccc2c(NC3CCC(N4CCCCC4)CC3)ccnc2c1 (stereo not given) | label 0
* CN(C)CCCSc1nc2c(c(=N)n1-c1ccccc1)c(=S)n(-c1ccccc1)c(=S)n2-c1ccccc1 | label 0
* CCN(CC)c1ccc2cc(C(=O)Nc3ccccc3OC)c(=N)oc2c1 | label 0
* N#Cc1nc(C(F)(F)F)oc1N | label 0
* CC1(C)OCC(C2OC(N3O[C@H](CI)C[C@@H]3c3ccccc3)C3OC(C)(C)OC23)O1 (stereo not given in full) | label 0
* Cc1ccc(C(=O)Oc2ccc(/C=C3\CCC/C(=C\c4ccc(OC(=O)c5ccc(C)cc5)cc4)C3=O)cc2)cc1 | label 0
* Cc1nn(C(=O)c2ccc(Cl)cc2)c2c1C(/C=C/c1ccccc1)SC(=N)N2 (stereo not given) | label 0
* CC1Oc2cc3c(-c4c(O)cc(O)c5c(O)c6c(cc45)OC(C)C(C)C6=O)c(O)cc(O)c3c(O)c2C(=O)C1C (stereo not given) | label 1
* CC(C)[C@H](NC(=O)[C@H](C(C)C)N(Cc1ccccc1)Cc1ccccc1)C(=O)N(C)[C@H](C(=O)N1CCC[C@H]1C(=O)N(C)[C@H](C)C(=O)NCc1ccc(Cl)cc1)C(C)C (Bn2Val-V[NMeV]P[dNMeA]-{NH(4-Cl-benzyl)}) | label 0
* Sc1ncnc2nc[nH]c12 [MERCAPTOPURINE ANHYDROUS] | label 0
* CC(/C(=N\Nc1ccccc1)c1ccc(O)cc1)C1C(=O)Oc2ccccc21 (stereo not given) | label 0
* COc1cc(C2SCC(=O)N2c2ccc(Cl)c(Cl)c2)cc(OC)c1OC (stereo not given) | label 0
* O=S(=O)(O)SC/C=C\CSS(=O)(=O)O | label 0
* CC1(C)CC(=O)C(=[N+]=[N-])C(=O)C1 | label 0
* COc1ccc2c(c1)OCC1Cc3cc4c(cc3OC21)OCO4 (stereo not given) | label 0
* Cc1sc2nc(-c3ccc([N+](=O)[O-])cc3)c(/C=N/N=C(N)N)n2c1C | label 0
* O=C(O)Cc1ccc(Oc2nc3ccccc3nc2-c2cccs2)cc1 | label 0
* CCCCOCCOCCOC1=CC(=O)c2c(O)ccc(O)c2C1=O | label 0
* CC1C=C(CCCCCCCCCCCC[C@@H](O)[C@@H]2CC[C@@H]([C@@H]3CC[C@@H](C(O)CCCCCCCCCCCCC4=C[C@H](C)OC4=O)O3)O2)C(=O)O1 (stereo not given in full) | label 0
* COc1ccc2c(C(=O)c3cn(CCN4CCOCC4)c4ccccc34)cccc2c1 | label 0
* CC1=NN(c2nc(N)nc(/C(C#N)=C/c3ccncc3)n2)C(C)(C)C1 | label 0
* O=S(=O)(/C=C/c1ccc(F)cc1)Cc1ccc(CS(=O)(=O)/C=C/c2ccc(F)cc2)cc1 | label 0
* Cc1cccc(C)c1NC(=O)CCC(=O)NNc1nnc(C)n1N | label 0
* Cc1nn(C(=O)c2ccccc2O)c2c1C(c1ccco1)SC(=N)N2 (stereo not given) | label 0
* COCc1nc2c(OC)c(-c3nc4ccc(N5CCN(C)CC5)nc4[nH]3)cc(OC)c2[nH]1 | label 0
* COC(=O)C(Cc1nc2ccccc2nc1O)C(NO)C(=O)Nc1c(Cl)cc([N+](=O)[O-])cc1Cl (stereo not given) | label 0
* CCN1CC(C)Cn2c(=O)[nH]c3cc(Br)cc1c32 (stereo not given) | label 0
* Nc1nc(O)nc2c1ncn2C1OC(CO)C(O)C1O (stereo not given) | label 0
* COc1ccc2[nH]c3c(c2c1)[C@H](c1ccccc1)C[C@@H]1C(=O)N(c2ccccc2)C(=O)[C@H]31 | label 0
* Cc1ccc(NC(=O)CC2SC(=N)NC2=O)cc1C (stereo not given) | label 0
* C[C@@H](NC(=O)Nc1cccc(C(=O)Nc2cc(C(C)(C)C)ccc2C(=O)O)n1)c1ccccc1 | label 0
* COc1ccc2nc3cc(Cl)ccc3c(Sc3ccc(NC(C)=O)cc3)c2c1 | label 0
* COc1ccccc1Nc1nc(N)nc(N)c1N | label 0
